Origin of values: ChEMBL document CHEMBL1201862

Target: Polyadenylate-binding protein 1 (Homo sapiens, UniProt P11940)
Sequence (P11940 whole entry, the tested form may be a part): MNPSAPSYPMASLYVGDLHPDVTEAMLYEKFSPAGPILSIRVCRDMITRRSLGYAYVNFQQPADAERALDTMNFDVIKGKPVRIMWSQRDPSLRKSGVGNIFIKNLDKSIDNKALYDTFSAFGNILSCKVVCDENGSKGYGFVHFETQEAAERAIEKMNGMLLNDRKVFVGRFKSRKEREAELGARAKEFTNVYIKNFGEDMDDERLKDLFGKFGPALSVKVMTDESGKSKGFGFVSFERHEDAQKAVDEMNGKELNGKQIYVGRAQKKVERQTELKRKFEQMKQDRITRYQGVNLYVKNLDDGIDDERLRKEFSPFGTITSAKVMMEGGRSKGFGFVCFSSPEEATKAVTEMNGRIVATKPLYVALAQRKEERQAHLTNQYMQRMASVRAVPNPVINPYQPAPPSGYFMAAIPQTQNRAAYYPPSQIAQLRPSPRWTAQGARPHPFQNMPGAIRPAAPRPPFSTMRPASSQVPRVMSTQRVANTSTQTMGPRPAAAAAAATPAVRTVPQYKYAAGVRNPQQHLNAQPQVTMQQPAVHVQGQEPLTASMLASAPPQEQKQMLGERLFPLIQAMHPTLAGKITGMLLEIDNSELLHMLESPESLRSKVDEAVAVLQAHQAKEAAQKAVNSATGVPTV
Assay: MLLE domain peptide-binding blockers, IC50 – biochemical, fluorescence polarization, FITC-PAM2 peptide, dose response (AID 602259)
Type: functional
Conditions: read-out: IC50_Mean
The source made the active and inactive calls. Rule as the data show it: active = IC50 of 20 µM or less and inactive = more.
measured_metric: IC50

Inquiry: Request - read-out IC50 | tested on Polyadenylate-binding protein 1 (Homo sapiens, UniProt P11940) | compound CCC(=O)N1CCN(c2ccc(NC(=S)NC(=O)c3cccc([N+](=O)[O-])c3)cc2)CC1
Reply text: > 66 µM (inactive)

Inquiry: Request - read-out IC50 | tested on Polyadenylate-binding protein 1 (Homo sapiens, UniProt P11940) | compound O=C(O)CSc1cc(NS(=O)(=O)c2ccc(Cl)cc2)c2ccccc2c1O
Reply text: > 66 µM (inactive)

Inquiry: Request - read-out IC50 | tested on Polyadenylate-binding protein 1 (Homo sapiens, UniProt P11940) | compound NC1=C(Br)C(=O)c2ncccc2C1=O
Reply text: > 66 µM (inactive)

Inquiry: Request - read-out IC50 | tested on Polyadenylate-binding protein 1 (Homo sapiens, UniProt P11940) | compound NC(=O)CN(c1ccccc1)C1SC(=O)N(Cc2ccccc2)C1=O (configuration not stated)
Reply text: > 66 µM (inactive)

Inquiry: Request - read-out IC50 | tested on Polyadenylate-binding protein 1 (Homo sapiens, UniProt P11940) | compound CC(Sc1ccc2c(c1)OCCO2)C(=O)Nc1ncc(Cl)cc1Cl (configuration not stated)
Reply text: > 66 µM (inactive)

Inquiry: Request - read-out IC50 | tested on Polyadenylate-binding protein 1 (Homo sapiens, UniProt P11940) | compound O=C1c2cccc3cc([N+](=O)[O-])cc(c23)C(=O)N1CCN1CCCC1 [PINAFIDE]
Reply text: 44.7 µM (inactive)

Inquiry: Request - read-out IC50 | tested on Polyadenylate-binding protein 1 (Homo sapiens, UniProt P11940) | compound O=C(CSc1nccn(-c2ccc(Br)cc2)c1=O)NC1CCCC1
Reply text: > 66 µM (inactive)

Inquiry: Request - read-out IC50 | tested on Polyadenylate-binding protein 1 (Homo sapiens, UniProt P11940) | compound O=C(NC(=S)Nc1cccnc1)c1cc2ccccc2o1
Reply text: > 66 µM (inactive)

Inquiry: Request - read-out IC50 | tested on Polyadenylate-binding protein 1 (Homo sapiens, UniProt P11940) | compound Cn1c(O)nc2cc(Cl)cnc21
Reply text: 35.1 µM (inactive)

Inquiry: Request - read-out IC50 | tested on Polyadenylate-binding protein 1 (Homo sapiens, UniProt P11940) | compound O=C1NN(c2cccc(F)c2)C(=O)/C1=C1\C(=O)Nc2ccccc21
Reply text: > 66 µM (inactive)

Inquiry: Request - read-out IC50 | tested on Polyadenylate-binding protein 1 (Homo sapiens, UniProt P11940) | compound CC(C)NS(=O)(=O)c1ccc(NC(=S)NC(=O)c2cccc([N+](=O)[O-])c2)cc1
Reply text: > 66 µM (inactive)

Inquiry: Request - read-out IC50 | tested on Polyadenylate-binding protein 1 (Homo sapiens, UniProt P11940) | compound O=C(O)c1ccccc1SC1CC(=O)N(c2cccc3ccccc23)C1=O (configuration not stated)
Reply text: > 66 µM (inactive)
